Tested on: Leishmania infantum
Method description: Growth inhibition of L. infantum
Format: cell-based
Test conditions: mean ± standard deviation, n ≥ 2
Assay readout: IC50

Please review the following examples before continuing.
molecule="CN(C)c1ccc2ncc([N+](=O)[O-])n2n1 [Compound 21]" result="> 64 µM"
molecule="O=[N+]([O-])c1cnc2ccc(N3CCC(N4CCCC4)CC3)nn12 [Compound 25]" result="> 64 µM"
molecule="O=[N+]([O-])c1cnc2ccc(N3CCCCC3)nn12 [Compound 23]" result="> 64 µM"

Shifting focus to the molecule that follows.
Reported IC50 for COc1ccc(C2=NN(C3CCN(c4ccc5nccn5n4)CC3)C(=O)CC2)cc1OC [Compound 20] : what is it?
> 64 µM
